# System: SW480
# experiment: Cytotoxicity against human SW480 cells after 48 hrs by MTT assay
# Assay type: functional, cell-based
# conditions: SW480, 48 h
Collected IC50 values appear next to each entry.
quantity: IC50 (µM)

• O=C(C[n+]1ccn(-c2ccc(-c3cc4ccccc4o3)cc2)c1)c1ccc(F)cc1 = 16.8
• O=C(C[n+]1ccn(-c2ccc(-c3cc4ccccc4o3)cc2)c1)c1ccc(Br)cc1 = 2.85
• c1ccc(C[n+]2ccn(-c3ccc(-c4cc5ccccc5o4)cc3)c2)cc1 = 19.9
• O=C(c1ccccc1)C(c1ccccc1)[n+]1ccn(-c2ccc(-c3cc4ccccc4o3)cc2)c1 (stereo not given) = 6.93

---

# System: HL-60
# experiment: Cytotoxicity against human HL60 cells after 48 hrs by MTT assay
# Assay type: functional, cell-based
# conditions: HL-60, 48 h
Collected IC50 values appear next to each entry.
quantity: IC50 (µM)

* c1ccc(C[n+]2ccn(-c3ccc(-c4cc5ccccc5o4)cc3)c2)cc1 | 5.37
* O=C(C[n+]1ccn(-c2ccc(-c3cc4ccccc4o3)cc2)c1)c1ccc(F)cc1 | 12.3
* O=C(c1ccccc1)C(c1ccccc1)[n+]1ccn(-c2ccc(-c3cc4ccccc4o3)cc2)c1 (configuration not stated) | 2.7
* CCCC[n+]1ccn(-c2ccc(-c3cc4ccccc4o3)cc2)c1 | 11.8
* C=CC[n+]1ccn(-c2ccc(-c3cc4ccccc4o3)cc2)c1 | 14.5
* COc1ccc(C(=O)C[n+]2ccn(-c3ccc(-c4cc5ccccc5o4)cc3)c2)cc1 | 2.26
* O=C(C[n+]1ccn(-c2ccc(-c3cc4ccccc4o3)cc2)c1)c1ccccc1 | 2.61
* O=C(C[n+]1ccn(-c2ccc(-c3cc4ccccc4o3)cc2)c1)c1ccc2ccccc2c1.[Br-] | 2.49
* Brc1ccccc1C[n+]1ccn(-c2ccc(-c3cc4ccccc4o3)cc2)c1 | 1.97
* O=C(C[n+]1ccn(-c2ccc(-c3cc4ccccc4o3)cc2)c1)c1ccc(Br)cc1 | 3.15

---

# Tested on: SW480
# experiment: Cytotoxicity against human SW480 cells after 48 hrs by MTT assay
# Type: functional, cell-based
# conditions: SW480, 48 h
quantity: IC50

- c1ccc2oc(-c3ccc(-n4ccnc4)cc3)cc2c1: > 40 µM
- CCCC[n+]1ccn(-c2ccc(-c3cc4ccccc4o3)cc2)c1: > 40 µM
- O=C(C[n+]1ccn(-c2ccc(-c3cc4ccccc4o3)cc2)c1)c1ccc(O)cc1: > 40 µM

Data provenance is ChEMBL document CHEMBL2016509.
